I'd be grateful if you could share measured MIC for these entries.
# Test system: S. aureus ATCC# 29213 (Lzd-resistant)
# run-description: microbe, parasite or virus in culture
# Type: cell-based, Staphylococcus aureus
# test-context: Staphylococcus aureus, ATCC29213; linezolid-resistant isogenic strain
The figure you give is taken to be in µg/mL; do not add the unit.

Give the measured MIC of CC(=O)NC[C@H]1CN(c2ccc(-c3ccc(CO[C@@H]4COc5nc([N+](=O)[O-])cn5C4)cc3)c(F)c2)C(=O)O1 . 4

Give the measured MIC of CC(=O)NC[C@H]1CN(c2ccc(N3CCOCC3)c(F)c2)C(=O)O1 [Linezolid, linezolid, reference compound] . 64

Give the measured MIC of CC(=O)NC[C@H]1CN(c2ccc(-c3cnc(O[C@@H]4COc5nc([N+](=O)[O-])cn5C4)nc3)c(F)c2)C(=O)O1 . 8

Origin of the recorded values: patent US7666864B2
